Where do the numbers come from? From ChEMBL document CHEMBL1201862.

Kindly supply the reported GI50 values for the records listed here.
System: SK-MEL-5
Assay: NCI tumour cell line growth inhibition, 48 h
Activity calls are given as the source filed them. Cut-off read from the data, not from the text of the source: active = GI50 up to about 1.1 µM and inactive = higher.

For the compound N#CC(C(=O)c1cccnc1Cl)c1nc2cc(C(F)(F)F)ccc2s1 (configuration not stated) , report GI50.
> 100 µM (inactive)

For the compound CCCCCCc1cc2cc(C(=O)Nc3cccc(C(F)(F)F)c3)c(=N)oc2cc1O , report GI50.
1.13 µM (inactive)

For the compound O=C(O)c1nc2ccc(C(F)(F)F)cc2nc1Nc1ccc(Cl)c(Cl)c1 , report GI50.
10.6 µM (inactive)

For the compound CN(C)CCOc1ccc([N+](=O)[O-])c2cccnc12 , report GI50.
> 100 µM (inactive)

For the compound C[C@@H]1C[C@]2(C[C@@H](C)[C@H]3C(C[C@@]4(C)CCC[C@@H]5C6=C[C@H](CCC34C)OC6=CC(=O)OC5(C)C)O2)OC1=O (some centres not stated) , report GI50.
> 51.5 µM (inactive)

For the compound Nc1ccc(CCN2CCN(c3cccc(C(F)(F)F)c3)CC2)cc1 , report GI50.
55.2 µM (inactive)

For the compound COc1cc(C=C2C(=O)NC(=S)NC2=O)cc(OC)c1OC , report GI50.
> 100 µM (inactive)

For the compound CCCCc1ccc(N2C(=O)c3cc([N+](=O)[O-])cnc3S2(=O)=O)cc1 , report GI50.
> 100 µM (inactive)

For the compound CC1(C)CC(=O)c2c([nH]c(=S)c(C#N)c2-c2ccc(Br)cc2)C1 , report GI50.
46.9 µM (inactive)

For the compound C=CCCC(O)c1cc(C)c(O)c(C)c1 (configuration not stated) , report GI50.
> 100 µM (inactive)

For the compound S=C1CC(c2ccccc2)Sc2ccc(Cl)cc2N1 (configuration not stated) , report GI50.
22 µM (inactive)

For the compound O=N/N=c1\o[n-][n+](CCc2ccccc2)c1Cc1/c(=N/N=O)o[n-][n+]1CCc1ccccc1 , report GI50.
31.2 µM (inactive)

For the compound CCOC(=O)/C(=C/c1ccccc1)N(CC)CC , report GI50.
> 100 µM (inactive)

For the compound CCOC(=O)C1=C(C)N(C2OC(COC(C)=O)C(OC(C)=O)C(OC(C)=O)C2OC(C)=O)C(=O)NC1c1ccccc1 (configuration not stated) , report GI50.
> 100 µM (inactive)

For the compound [O-][S+](c1ccccc1)c1ccc(/N=N/O)nc1 (configuration not stated) , report GI50.
> 100 µM (inactive)

For the compound NC(=O)c1c2c(n3ccccc13)C(=O)c1ccccc1C2=O , report GI50.
16.1 µM (inactive)

For the compound Clc1ccc(Cc2nc3cc(Cl)ccc3o2)cc1 , report GI50.
15.3 µM (inactive)

For the compound CCOP(=O)(OCC)/C(=C\N1C(=O)CC(=O)NC1=S)C(=O)OC , report GI50.
> 100 µM (inactive)

For the compound CCOC(=O)[C@H]1Nc2ccc([N+](=O)[O-])cc2C2c3ccccc3CC21 (some centres not stated) , report GI50.
13.1 µM (inactive)

For the compound COc1ccccc1Cn1[nH]c(=O)c2cc([N+](=O)[O-])ccc21 , report GI50.
> 100 µM (inactive)

For the compound O=C(/C=C/c1ccc(O)cc1)c1cc(-c2cc(CCC(=O)c3ccc(O)cc3O)ccc2O)c(O)cc1O , report GI50.
25.2 µM (inactive)

For the compound CC(=O)NC1C(OC2C(CO)OC(OCC3OC(n4ccc(N)nc4=O)C(O)C3O)C(NC(C)=O)C2O)OC(CO)C(O)C1O (configuration not stated) , report GI50.
> 100 µM (inactive)
